# credit: patent US7094869B2

- experimental.system: rat pituitary cells (Rattus norvegicus)
- Sequence (O08725 whole entry): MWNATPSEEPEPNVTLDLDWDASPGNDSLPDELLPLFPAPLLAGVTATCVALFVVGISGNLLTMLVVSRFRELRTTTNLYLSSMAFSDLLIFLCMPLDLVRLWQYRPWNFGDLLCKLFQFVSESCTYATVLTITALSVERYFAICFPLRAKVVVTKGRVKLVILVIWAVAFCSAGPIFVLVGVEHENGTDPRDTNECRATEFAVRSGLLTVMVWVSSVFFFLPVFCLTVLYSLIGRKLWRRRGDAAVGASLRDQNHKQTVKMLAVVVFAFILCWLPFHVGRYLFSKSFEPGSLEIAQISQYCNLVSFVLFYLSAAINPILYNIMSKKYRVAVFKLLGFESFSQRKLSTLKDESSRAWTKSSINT
- condition.context: read-out: PIT Cell EC50; Table III, formula IV compounds; GH release, 15 min incubation
Non-standard residues stand in square brackets, D forms with d. Residues, ends and D or L forms follow the SMILES beside them. ξ: configuration not given here. dNMe2Nal = CN[C@H](Cc1ccc2ccccc2c1)C(=O)O; d2Nal = N[C@H](Cc1ccc2ccccc2c1)C(=O)O; ξ2Nal = NC(Cc1ccc2ccccc2c1)C(=O)O; dPhg = N[C@@H](C(=O)O)c1ccccc1; Inp = O=C(O)C1CCNCC1; ξK = NCCCCC(N)C(=O)O; Ava = NCCCCC(=O)O; βAla = NCCC(=O)O
# label = bin(measured EC50), where bins are low group (below 0.7 nM), middle group (0.7 nM to below 5 nM), high group (5 nM or more)

compound | label
NCCCCC(=O)N[C@H](Cc1ccc2ccccc2c1)C(=O)N[C@H](Cc1ccc2ccccc2c1)C(=O)N[C@@H](C(=O)N[C@@H](CCCCN)C(N)=O)c1ccccc1 [(Ava) b b (pG) K amide] (H-[Ava][d2Nal][d2Nal][dPhg]K-NH2) | high group
NCCCCC(=O)N[C@H](Cc1ccc2ccccc2c1)C(=O)N[C@H](Cc1ccc2ccccc2c1)C(=O)N[C@@H](Cc1ccccc1)C(=O)N[C@@H](CC(N)=O)C(N)=O [(Ava) b b F N amide] (H-[Ava][d2Nal][d2Nal]FN-NH2) | high group

(Q) Into which bin does this compound go? NCCCC[C@H](NC(=O)[C@H](Cc1ccccc1)NC(=O)[C@@H](Cc1ccc2ccccc2c1)NC(=O)[C@@H](Cc1ccc2ccccc2c1)NC(=O)CCN)C(N)=O [bA b b F K amide] (H-[βAla][d2Nal][d2Nal]FK-NH2)
(A) middle group

(Q) Into which bin does this compound go? NCCCC[C@H](NC(=O)[C@H](Cc1ccc(O)cc1)NC(=O)[C@@H](Cc1ccc2ccccc2c1)NC(=O)[C@@H](Cc1ccc2ccccc2c1)NC(=O)C1CCNCC1)C(N)=O [(inip) b b Y K amide] (H-[Inp][d2Nal][d2Nal]YK-NH2)
(A) low group

(Q) Into which bin does this compound go? NCCCCC(=O)N[C@H](Cc1ccc2ccccc2c1)C(=O)N[C@H](Cc1ccc2ccccc2c1)C(=O)N[C@@H](Cc1ccccc1)C(=O)N[C@@H](CCCCN)C(N)=O [(Ava) b b F K amide] (H-[Ava][d2Nal][d2Nal]FK-NH2)
(A) middle group

(Q) Into which bin does this compound go? NCCCCC(=O)N[C@H](Cc1ccc2ccccc2c1)C(=O)N[C@H](Cc1ccc2ccccc2c1)C(=O)N[C@@H](Cc1ccccc1)C(=O)N[C@H](CCCCN)C(N)=O [(Ava) b b F k amide] (H-[Ava][d2Nal][d2Nal]F[dK]-NH2)
(A) high group

(Q) Into which bin does this compound go? C[C@H](NC(=O)[C@@H](Cc1ccc2ccccc2c1)NC(=O)[C@@H](Cc1ccc2ccccc2c1)NC(=O)CCCCN)C(=O)N[C@@H](CCCCN)C(N)=O [(Ava) b b A K amide] (H-[Ava][d2Nal][d2Nal]AK-NH2)
(A) high group

(Q) Into which bin does this compound go? NCCCC[C@H](NC(=O)[C@H](Cc1ccccc1)NC(=O)[C@@H](Cc1c[nH]c2ccccc12)NC(=O)[C@@H](Cc1ccc2ccccc2c1)NC(=O)[C@@H](N)Cc1c[nH]cn1)C(N)=O [H b w F K amide] (H-H[d2Nal][dW]FK-NH2)
(A) high group

(Q) Into which bin does this compound go? NC(=O)CCNC(=O)[C@H](Cc1ccccc1)NC(=O)[C@@H](Cc1ccc2ccccc2c1)NC(=O)[C@@H](Cc1ccc2ccccc2c1)NC(=O)C1CCNCC1 [(inip) b b F bA amide] (H-[Inp][d2Nal][d2Nal]F[βAla]-NH2)
(A) low group

(Q) Into which bin does this compound go? CN(C(=O)C(Cc1ccc2ccccc2c1)NC(=O)C1CCNCC1)[C@H](Cc1ccc2ccccc2c1)C(=O)N[C@@H](Cc1ccccc1)C(=O)NC(CCCCN)C(N)=O (stereo partly drawn) [(inip) b nmb F K amide, (inip)-DβNal-(N-Me-DβNal)-Phe-Lys-amide] (H-[Inp][ξ2Nal][dNMe2Nal]F[ξK]-NH2)
(A) low group
